Measured pIC50, listed per entry for reference.
Tested on: MCF7
Test: Cytotoxicity against human MCF7 cells assessed as reduction in cell viability after 72 hrs by MTT assay
Assay type: functional, cell-based
Details: MCF7, 72 h
The quantity pIC50 is defined as the negative base-10 logarithm of the molar concentration.

Recorded results for 2 compounds are shown here.
# compound, system_name, pIC50
measured = [
    ("O=C1OC(O)C(Cl)=C1Cl (stereo not drawn) [MUCOCHLORIC ACID]", "MCF7", 4.49),
    ("CC(C)(C)COC1OC(=O)C(Cl)=C1Cl (stereo not drawn)", "MCF7", 4.95),
]

### Prompt Give its pIC50 value. Item: CC(C)OC1OC(=O)C(Cl)=C1Cl (stereo not drawn)
### Response 4.91

----------
Tested on: HepG2
Test: Cytotoxicity against human HepG2 cells assessed as reduction in cell viability after 72 hrs by MTT assay
Format: functional, cell-based
Conditions: HepG2, 72 h
Reported pIC50 values for the following compounds.
In simple prose, pIC50 is minus the logarithm base ten of a concentration in moles per litre.

# compound, value_observed
records = [
    ("CC(C)OC1OC(=O)C(Cl)=C1Cl (stereo not drawn)", 4.77),
    ("CC(C)(C)COC1OC(=O)C(Cl)=C1Cl (stereo not drawn)", 4.75),
]

As a next step, examine the compound that follows.
### Prompt Any idea what pIC50 was measured for O=C1OC(O)C(Cl)=C1Cl (stereo not drawn) ?
### Response 3.95

----------
Items are presented alongside their recorded log(RatioIC50).
Test: Selectivity index, ratio of IC50 for human BEAS2B cells to IC50 for human A549 cells
Assay type: toxicity
Simply state the number, no unit and no words.

Solved cases (5 shown):
# compound, log(RatioIC50)
records = [
    ("CC(C)OC1OC(=O)C(Cl)=C1Cl (centres undefined)", 0.61),
    ("O=C1OC(O)C(Cl)=C1Cl (centres undefined) [MUCOCHLORIC ACID]", -0.44),
    ("COC1OC(=O)C(Cl)=C1Cl (centres undefined)", 0.05),
    ("CC(C)OC1OC(=O)C(Cl)=C1Nc1ccc(Br)cc1 (centres undefined)", 0.32),
    ("CCCCOC1OC(=O)C(Cl)=C1N1CCCCC1 (centres undefined)", 0.27),
]

### Prompt What does the record list as log(RatioIC50) for CCCCOC1OC(=O)C(Cl)=C1Nc1ccccc1 (centres undefined) ?
### Response 0.07

### Prompt Any idea what its log(RatioIC50) is? The compound is CC(C)(C)COC1OC(=O)C(Cl)=C1Cl (centres undefined)
### Response 0.88

### Prompt Record request: log(RatioIC50) value, item CCCCOC1OC(=O)C(Cl)=C1Nc1ccc(F)cc1 (centres undefined)
### Response 0.19

### Prompt Using the record for CC(C)(C)COC1OC(=O)C(Cl)=C1Nc1ccc(F)cc1 (centres undefined) , report its log(RatioIC50).
### Response 0.25

### Prompt log(RatioIC50) lookup needed for CC(C)(C)OC1OC(=O)C(Cl)=C1Cl (centres undefined) , thanks.
### Response 0.22

### Prompt Bench note: what log(RatioIC50) did CC(C)(C)COC1OC(=O)C(Cl)=C1Nc1ccccc1 (centres undefined) show?
### Response 0

### Prompt Please give the measured log(RatioIC50) for this compound: CCCOC1OC(=O)C(Cl)=C1Cl (centres undefined)
### Response -0.02

### Prompt Value lookup for log(RatioIC50); key = CC(C)OC1OC(=O)C(Cl)=C1Nc1ccc(Cl)cc1 (centres undefined)
### Response 0.29

### Prompt Fill blank: measured log(RatioIC50) of the compound CCOC1OC(=O)C(Cl)=C1Cl (centres undefined) is ____.
### Response 0.22

### Prompt // lookup log(RatioIC50) for CC(C)(C)COC1OC(=O)C(Cl)=C1Nc1ccc(Cl)cc1 (centres undefined)
### Response 0.36

### Prompt Can you share its log(RatioIC50)? I mean this compound: CCCCOC1OC(=O)C(Cl)=C1Nc1ccc(Br)cc1 (centres undefined)
### Response -0.04

### Prompt Recorded log(RatioIC50) of CCCCOC1OC(=O)C(Cl)=C1Cl (centres undefined) , please.
### Response 0

### Prompt Name the recorded log(RatioIC50) for CC(C)(C)COC1OC(=O)C(Cl)=C1Nc1ccc(Br)cc1 (centres undefined) .
### Response 0.23

### Prompt Given the entry CCCCOC1OC(=O)C(Cl)=C1Nc1ccc(Cl)cc1 (centres undefined) , report its measured log(RatioIC50).
### Response 0.02

These measurements were taken from ChEMBL document CHEMBL4229359.
